# TARGET OR SYSTEM: Muscarinic acetylcholine receptor M1 (Homo sapiens) (UniProt P11229)
# Sequence (P11229 whole entry, looked up): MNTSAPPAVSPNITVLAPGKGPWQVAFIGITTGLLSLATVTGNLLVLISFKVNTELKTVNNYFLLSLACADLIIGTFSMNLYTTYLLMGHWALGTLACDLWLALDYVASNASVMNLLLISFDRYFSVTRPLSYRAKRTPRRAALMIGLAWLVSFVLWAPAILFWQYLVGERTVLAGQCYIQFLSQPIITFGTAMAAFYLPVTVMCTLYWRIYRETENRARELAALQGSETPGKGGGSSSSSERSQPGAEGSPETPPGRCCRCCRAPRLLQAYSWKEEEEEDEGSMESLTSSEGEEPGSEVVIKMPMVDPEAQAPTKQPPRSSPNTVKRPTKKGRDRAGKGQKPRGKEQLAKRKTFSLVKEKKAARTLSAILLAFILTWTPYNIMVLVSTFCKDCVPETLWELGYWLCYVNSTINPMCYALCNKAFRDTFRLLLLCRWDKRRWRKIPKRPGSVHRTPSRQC
# TEST: Cholinergic receptor muscarinic 1 (CHRM1) small molecule antagonists, cell-based qHTS assay (AID 1963588); note: nearly all actives have a fitted effect of over 40% in size
# CONDITION DESCRIPTION: CHRM1-CHO antagonist mode, calcium flux fluorescence; series mostly up to 61.5 µM
Results filed as inconclusive are left out. The source made the active and inactive calls. Calls come from the whole dose curve.
Form entry, call: pick from True (active), False (inactive)

A selection of reference data follows.
> print(dat)
                                   compound  assigned.label
1  COCCOC[C@H](CC1(C(=O)NC2CCC(C(=O)O)CC2)CCCC1)C(=O)Oc1ccc2c(c1)CCC2 (some centres not stated)           False
2    O=C(O)Cc1cc(I)c(Oc2ccc(O)c(I)c2)c(I)c1           False
3  O=C1c2c(O)ccc([N+](=O)[O-])c2C(=O)c2c([N+](=O)[O-])ccc(O)c21           False

## Task In this assay, the call recorded for CC(CCO)CCCC(C)(C)O (configuration not stated) was what?
## Result False

## Task In this assay, the call recorded for Cc1nc(N)nc(N)c1-c1ccc(Cl)c(Cl)c1 was what?
## Result True

## Task In this assay, the call recorded for CC1=C(C/C=C(\C)CCC[C@H](C)CCC[C@H](C)CCCC(C)C)C(=O)c2ccccc2C1=O was what?
## Result False

## Task In this assay, the call recorded for Cn1c(N)nc2nc[nH]c2c1=O was what?
## Result False

## Task In this assay, the call recorded for S=C([S-])NCCNC(=S)[S-].[Mn+2] was what?
## Result False

## Task In this assay, the call recorded for CCCOCC(C)OCC(C)O (configuration not stated) was what?
## Result False

====

# TARGET OR SYSTEM: KiSS-1 receptor (Homo sapiens) (UniProt Q969F8)
# Sequence (Q969F8 whole entry, looked up): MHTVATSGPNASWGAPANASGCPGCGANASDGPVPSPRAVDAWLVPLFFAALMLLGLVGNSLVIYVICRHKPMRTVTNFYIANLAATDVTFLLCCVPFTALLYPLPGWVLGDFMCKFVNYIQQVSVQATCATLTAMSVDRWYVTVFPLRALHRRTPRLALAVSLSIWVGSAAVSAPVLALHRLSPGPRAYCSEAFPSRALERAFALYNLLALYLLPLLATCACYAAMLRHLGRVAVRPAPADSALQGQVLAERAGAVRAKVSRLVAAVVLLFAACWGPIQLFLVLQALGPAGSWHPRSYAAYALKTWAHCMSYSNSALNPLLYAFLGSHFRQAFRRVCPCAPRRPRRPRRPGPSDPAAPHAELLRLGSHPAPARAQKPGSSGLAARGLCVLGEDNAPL
# TEST: Human kisspeptin (KISS1R) small molecule agonists, calcium flux assay in KISS1R-HEK293 cells (AID 1920064); note: % is set by controls: 0 for no effect and ±100 for the full control effect
# CONDITION DESCRIPTION: KISS1R-HEK293, calcium flux fluorescence, agonist; series mostly up to 76.8 µM
The source made the active and inactive calls. Calls come from the whole dose curve; as a rule, active = well fitted activation curve with a large enough effect in the repeat runs; inconclusive = weak or mixed curves; inactive = flat fitted curve, though single readings scatter.
MEASURE: activation

> print(dat)
                                   compound                          target.or.system    result
1  CCCCC(CC)COC(=O)COc1cc(Cl)c(Cl)cc1Cl (stereo not given)  KiSS-1 receptor (Homo sapiens) (UniProt Q969F8)  inactive
2  CO[C@@]12[C@H](COC(N)=O)C3=C(C(=O)C(C)=C(N)C3=O)N1C[C@@H]1N[C@@H]12  KiSS-1 receptor (Homo sapiens) (UniProt Q969F8)  inactive
3  Clc1ccc(C(Cn2ccnc2)OCc2ccsc2Cl)c(Cl)c1 (stereo not given)  KiSS-1 receptor (Homo sapiens) (UniProt Q969F8)  inactive
4  CC(=O)c1ccc2c(c1)[C@H](NC(=O)c1ccc(F)cc1)[C@@H](O)C(C)(C)O2  KiSS-1 receptor (Homo sapiens) (UniProt Q969F8)  inactive

## Task Kindly state the measured activation obtained for O=C(Nc1ccc(Cl)cc1)Nc1ccc(Cl)c(C(F)(F)F)c1 with KiSS-1 receptor (Homo sapiens) (UniProt Q969F8).
## Result inactive

## Task Kindly state the measured activation obtained for BrCCOc1ccccc1 with KiSS-1 receptor (Homo sapiens) (UniProt Q969F8).
## Result inactive

## Task Kindly state the measured activation obtained for CC(=O)OC(C)OC(=O)C(C)c1ccc(-c2ccccc2)c(F)c1 (stereo not given) with KiSS-1 receptor (Homo sapiens) (UniProt Q969F8).
## Result inactive

## Task Kindly state the measured activation obtained for COc1ccc(-c2ccc3cc(C(=O)O)ccc3c2)cc1C12CC3CC(CC(C3)C1)C2 with KiSS-1 receptor (Homo sapiens) (UniProt Q969F8).
## Result inactive

## Task Kindly state the measured activation obtained for C/C=C/C=C/CO with KiSS-1 receptor (Homo sapiens) (UniProt Q969F8).
## Result inactive

## Task Kindly state the measured activation obtained for CC1(C)[C@@H](O)CC[C@]2(C)[C@H]3C(=O)C=C4[C@@H]5C[C@@](C)(C(=O)O)CC[C@]5(C)CC[C@@]4(C)[C@]3(C)CC[C@@H]12 with KiSS-1 receptor (Homo sapiens) (UniProt Q969F8).
## Result inactive

====

# TEST: p53 small molecule agonists, cell-based qHTS assay with human liver microsomes: qHTS cell viability counter screen (AID 1963579); note: nearly all actives have a fitted effect of over 45% in size
# CONDITION DESCRIPTION: p53RE-bla HCT-116 viability, ATP luminescence, 16 h, HLM; series mostly up to 66 µM
Inconclusive results are not listed. The source made the active and inactive calls. The call rests on the fitted dose curve.
Form entry, call: pick from active, inactive

> print(dat)
                                   molecule  assigned.label
1            O=C1c2ccccc2C(=O)c2c(Cl)cccc21        inactive
2  c1ccc2c(c1)CCCC2C1=NCCN1 (configuration not stated)        inactive
3  COC(=O)C1=C(C)NC(C)=C(C(=O)OCCCN2CCC(c3ccccc3)(c3ccccc3)CC2)C1c1cccc([N+](=O)[O-])c1 (configuration not stated)        inactive

## Task In this assay, the call recorded for OCCOc1cccc(OCCO)c1 was what?
## Result inactive

## Task In this assay, the call recorded for Oc1cc2c(cc1O)[C@H]1c3ccc(O)c(O)c3OC[C@@]1(O)C2 was what?
## Result inactive

## Task In this assay, the call recorded for CCN[C@H]1C[C@H](C)S(=O)(=O)c2sc(S(N)(=O)=O)cc21 was what?
## Result inactive

## Task In this assay, the call recorded for CCOC(=O)c1ccccc1C(=C1C=C(Br)C(=O)C(Br)=C1)c1cc(Br)c(O)c(Br)c1 was what?
## Result inactive

## Task In this assay, the call recorded for NNC(=O)OCc1ccccc1 was what?
## Result inactive

## Task In this assay, the call recorded for CC(C)=CCCC(C)CCOC=O (configuration not stated) was what?
## Result inactive

## Task In this assay, the call recorded for CC(C)N(C)C was what?
## Result inactive

## Task In this assay, the call recorded for CC(C)Cn1cnc2c1c(=O)n(C)c(=O)n2C was what?
## Result inactive

## Task In this assay, the call recorded for COP(=O)(O)OP(=O)(O)OC was what?
## Result inactive

## Task In this assay, the call recorded for Oc1ccc(N=Nc2ccccc2)cc1 was what?
## Result inactive

## Task In this assay, the call recorded for CC(C)(C)c1csc(-c2cc3cc(OCc4ccccc4CC(=O)O)ccc3o2)n1 was what?
## Result active

## Task In this assay, the call recorded for CC(C)(C)C1CCCCC1=O (configuration not stated) was what?
## Result inactive

====

# TEST: p53 small molecule agonists, cell-based qHTS assay: qHTS cell viability counter screen (AID 1963581); note: % is set by controls: 0 for no effect and ±100 for the full control effect; nearly all actives have a fitted effect of over 45% in size
# CONDITION DESCRIPTION: p53RE-bla HCT-116 viability, ATP luminescence, 16 h; series mostly up to 66 µM
# Source text: National Center for Advancing Translational Sciences [NCATS] Division of Preclinical Innovation [DPI] U.S. Environmental Protection Agency [EPA] National Institutes of Environmental Health Sciences [NIEHS] National Toxicology Program [NTP] U.S. Food and Drug Administration [FDA] p53, a tumor suppressor protein, is activated following cellular insult, including DNA damage and other cellular stresses. […] The activation of the reporter gene under culture conditions can be detected by fluorescence intensity. […]
Results filed as inconclusive are left out. Active and inactive are the calls of the source. The call rests on the fitted dose curve.
MEASURE: activity change, negative = cytotoxicity

> print(dat)
                                   molecule    result
1                            N#CCCOCCOCCC#N  inactive
2  CCC(C)(CCC(C)C)C(=O)O (stereo not drawn)  inactive
3               C=C(C)C(=O)OCCOC(=O)CC(C)=O  inactive

====

# TEST: cAMP Responsive Elements (CRE) small molecule antagonists, cell-based qHTS assay (AID 1963591); note: % is set by controls: 0 for no effect and ±100 for the full control effect
# CONDITION DESCRIPTION: CRE-bla HEK293T, beta-lactamase FRET ratio; series mostly up to 92.4 µM
# Excerpt: U.S. Tox21 Program National Center for Advancing Translational Sciences [NCATS] Division of Preclinical Innovation [DPI] U.S. Environmental Protection Agency [EPA] National Institutes of Environmental Health Sciences [NIEHS] National Toxicology Program [NTP] U.S. Food and Drug Administration [FDA] […] The activation of the report gene under culture conditions can be detected by fluorescence intensity. […]
Results filed as inconclusive are left out. Activity calls are given as the source filed them. The call rests on the fitted dose curve; in most records, active means well fitted inhibition curve with a large enough effect in the signal ratio in the repeat runs (not every such curve was filed as active); inconclusive means weak or mixed curves, or effect the other way; inactive means flat fitted curve, though single readings scatter; the % refers to the signal ratio.
MEASURE: activity change, negative = inhibition

Study these solved cases before continuing.
COMPOUND	activity change, negative = inhibition
NC1=NCC2c3ccccc3Cc3ccccc3N12 (stereo not given)	inactive
O=[N+]([O-])c1ccc(O)cc1	inactive
CC(=O)c1ccccc1[N+](=O)[O-]	inactive
C=C[Si]1(C)O[Si](C)(C=C)O[Si](C)(C=C)O[Si](C)(C=C)O1 (stereo not given)	inactive
CN1CCN(C)CC1	inactive
CCOC(=O)C1=NN(c2ccccc2)C(=O)C1	inactive
CCCCCCCC/C=C\CCCCCCCC(=O)NCc1ccc(O)c(OC)c1	inactive
CC(C)(C)c1cc(CCC(=O)OCC(COC(=O)CCc2cc(C(C)(C)C)c(O)c(C(C)(C)C)c2)(COC(=O)CCc2cc(C(C)(C)C)c(O)c(C(C)(C)C)c2)COC(=O)CCc2cc(C(C)(C)C)c(O)c(C(C)(C)C)c2)cc(C(C)(C)C)c1O	inactive

## Task Entry Nc1ccn(C2CO[C@H](CO)O2)c(=O)n1 (stereo not given in full) has what activity change, negative = inhibition?
## Result inactive

## Task Entry CC(=O)Oc1ccc([N+](=O)[O-])cc1CCl has what activity change, negative = inhibition?
## Result inactive

## Task Entry COCc1nnc(-c2ccc[n+]([O-])c2)n1-c1c(Cl)c(Cl)cc2[nH]c(=O)c(=O)[nH]c12 has what activity change, negative = inhibition?
## Result inactive

## Task Entry Cc1ccccc1C(=O)Nc1ccc(C(=O)N2CCCC(O)c3cc(Cl)ccc32)c(C)c1 (stereo not given) has what activity change, negative = inhibition?
## Result inactive

## Task Entry CN(C)CCCN(C)C has what activity change, negative = inhibition?
## Result -6.12% [at 8.39 µM] (inactive)

## Task Entry CCCC/C=C/CCCCO has what activity change, negative = inhibition?
## Result inactive

## Task Entry CCOB(OCC)OCC has what activity change, negative = inhibition?
## Result inactive

## Task Entry CCN(CC)CC(=O)Nc1c(C)cccc1C has what activity change, negative = inhibition?
## Result inactive

## Task Entry CCCCC/C(=C\c1ccccc1)CO has what activity change, negative = inhibition?
## Result inactive

## Task Entry CN(C)CCCN1c2ccccc2Sc2ccc(C(F)(F)F)cc21 has what activity change, negative = inhibition?
## Result inactive
